# Population Fragmented Nuclei (%) per entry
tested on: U2OS; assay: Multiplex assay against U2OS; format: toxicity, cell-based; details: human, 12 h, 10 µM, compound concentration 10 uM, replicate 2
Non-standard residues stand in square brackets, D forms with d. Residues, ends and D or L forms follow the SMILES beside them.

INSERT INTO assay_data (compound, measurement_target, readout_value) VALUES
  ('CC(C)C[C@@H]1NC(=O)[C@@H](C(C)C)NC(=O)[C@@H]2CCCN2C(=O)[C@@H](CC(=O)O)NC(=O)[C@@H](Cc2c[nH]c3ccccc23)NC1=O [BQ-123] (cyclo(L[dW][dD]P[dV]))', 'U2OS', '25%');

Give its Population Fragmented Nuclei (%) value. Item: COc1cc2nc(N3CCN(C(=O)c4ccco4)CC3)nc(N)c2cc1OC.Cl [PRAZOSIN HYDROCHLORIDE]
15%

Same thing, different compound: C=CCN1C[C@H](C(=O)N(CCCN(C)C)C(=O)NCC)C[C@@H]2c3cccc4[nH]cc(c34)C[C@H]21
17%

* * *

system: U2OS; assay: Multiplex assay against U2OS; assay type: toxicity, cell-based; conditions: human, 12 h, 1 µM, compound concentration 1 uM, replicate 2
observed property: Population Normal (%)
Report as a plain number; the unit % is understood.

Known Population Normal (%) results, listed for orientation:
INSERT INTO results (compound, readout_value) VALUES
  ('CCCCCCNC(=O)Nc1ccc(S(=O)(=O)Nc2ccc(CCNC[C@H](O)COc3ccc(O)cc3)cc2)cc1', 99),
  ('Nc1nc(-c2ccco2)c2cnn(Cc3ccccc3F)c2n1', 99),
  ('CC(C)C[C@H](CO)Nc1nc(S[C@@H](C)c2ccccc2)nc2nc(N)sc12', 100),
  ('COc1cc(Nc2ncc3c(n2)-c2ccc(Cl)cc2C(c2c(F)cccc2OC)=NC3)ccc1C(=O)O', 95),
  ('COc1ccc2[nH]c(I)c(CCNC(C)=O)c2c1', 99),
  ('O=c1ccc2ccc(OCCCCN3CCN(c4cccc5sccc45)CC3)cc2[nH]1', 97);

Fill in: Population Normal (%) of O=C(O)CCC/C=C\CC1C(O)CC(O)C1/C=C/C(O)COc1cccc(Cl)c1 (centres undefined) is ___
100

Input CN1CCN(c2ccc(Nc3c4ccccc4nc4ccccc34)cc2)CC1.Cl.Cl.O
100

Can you check Cc1cc(=O)n(C)c2cc(N3C(=O)CC[C@H](NS(=O)(=O)CC(C)C)[C@H]3c3ccc(Cl)cc3)ccc12 next?
98

* * *

tested on: Fibroblast; assay: Multiplex assay against human fibroblast; assay type: toxicity, cell-based; settings: 24 h, 1 µM, compound concentration 1 uM, replicate 1
Overview of recorded Population Apoptotic (%) for various molecules
Numbers only; they are read as %.

INSERT INTO measurements (molecule, observed_property, readout_value) VALUES
  ('CSc1nc(NC2CCCC2)c([N+](=O)[O-])c(NC2CCCC2)n1', 'Population Apoptotic (%)', 30);

Which Population Apoptotic (%) value is on record for Cc1c(Cc2ccc3ccccc3n2)c2cc(F)ccc2n1CC(=O)O ?
33

Repeat with COc1cc(Nc2ncc3c(n2)-c2ccc(Cl)cc2C(c2c(F)cccc2OC)=NC3)ccc1C(=O)O
36

Param item: O=C(O)CCC/C=C\CC1C(O)CC(O)C1/C=C/C(O)COc1cccc(Cl)c1 (stereo unspecified)
41

Now the molecule Cc1nn(C)c2nc(NNC(=O)Nc3cc(Cl)nc(Cl)c3)cc(C(C)C)c12
59

Next: C[C@H](NC(=O)CNC(=O)c1cccc(Cl)c1)c1ccccc1
43

Same thing, different molecule: C[C@@H]1CC(=O)Nc2cccc(-c3ccc4c(c3)c(-c3cnn(C)c3)nn4C)c2N1
57

Next record, please: Cc1ccc(OCC(O)C(C)NC(C)C)c2c1CCC2.Cl (stereo unspecified)
57

Now consider O=C(Nc1cc(-c2ccccc2)nn1-c1ccccc1F)c1ccc([N+](=O)[O-])cc1 and answer again.
53

Next entry: C=CCN1C[C@H](C(=O)N(CCCN(C)C)C(=O)NCC)C[C@@H]2c3cccc4[nH]cc(c34)C[C@H]21
68

Try this molecule too: COc1ccc2c(c1OCc1ccccc1)C[C@@H](C(=O)O)N(C(=O)C(c1ccccc1)c1ccccc1)C2
65
